Cited source for all entries: the Immune Epitope Database (IEDB)

# system-tested: HLA-A*11:01
# assay-name: IEDB peptide-MHC binding, purified MHC/competitive/radioactivity; filed as Kd, often an IC50 or EC50 that approximates it; bounds were set here for any values at or beyond the usual limits of such assays
# assay-conditions: source organism: Vaccinia virus WR
measured-endpoint: Kd

Sample "IMFEQYFIY" — what was its Kd? ≥ 77900 nM

Sample "VTIKYSNDNR" — what was its Kd? 53.1 nM

Sample "EFIRIIRPDY" — what was its Kd? ≥ 69800 nM

Sample "EQNLTDTNFK" — what was its Kd? 1250 nM

Sample "FTFGDTALY" — what was its Kd? 192 nM

Sample "IITVGMLIY" — what was its Kd? 6770 nM

Sample "RSKMLKRGSR" — what was its Kd? 1170 nM

* * *

# system-tested: HLA-B*15:17
# assay-name: IEDB peptide-MHC binding, purified MHC/direct/fluorescence; filed as Kd, often an IC50 or EC50 that approximates it; bounds were set here for any values at or beyond the usual limits of such assays
# assay-conditions: source organism: Camelpox virus M-96
measured-endpoint: pKd
pKd here is simply -log10 of the concentration when that concentration is written in mol/L.

Sample "KSALNDFDF" — what was its pKd? 7.53

* * *

So I've got a bunch of sequences here, and I need their pKd values.
# system-tested: HLA-A*23:01
# assay-name: IEDB peptide-MHC binding, purified MHC/direct/fluorescence; filed as Kd, often an IC50 or EC50 that approximates it; bounds were set here for any values at or beyond the usual limits of such assays
# assay-conditions: source organism: Zaire ebolavirus
pKd: −log10 of the molar value.

Identify the measured pKd of "SMHYKLDEV" for HLA-A*23:01. ≤ 4.70

Identify the measured pKd of "ILNRKAIDF" for HLA-A*23:01. ≤ 4.70

* * *

# system-tested: HLA-B*44:03
# assay-name: IEDB peptide-MHC binding, purified MHC/competitive/radioactivity; filed as Kd, often an IC50 or EC50 that approximates it; bounds were set here for any values at or beyond the usual limits of such assays
# assay-conditions: source organism: Mammarenavirus juninense
measured-endpoint: Kd (µM)
API: value field is a number in µM; no unit string.

Identify the measured Kd of "HDLPLLCNL" for HLA-B*44:03. 4.11

Identify the measured Kd of "AETGSQGVYM" for HLA-B*44:03. 1.04

* * *

# system-tested: HLA-A*11:01
# assay-name: IEDB peptide-MHC binding, purified MHC/competitive/fluorescence; filed as Kd, often an IC50 or EC50 that approximates it; bounds were set here for any values at or beyond the usual limits of such assays
# assay-conditions: source organism: Influenza A virus (A/California/04/2009(H1N1))
measured-endpoint: Kd (nM)
API: value field is a number in nM; no unit string.

Sample "HAGAKSFYK" — what was its Kd? 5.5

* * *

# system-tested: HLA-B*46:01
# assay-name: IEDB peptide-MHC binding, purified MHC/competitive/fluorescence; filed as Kd, often an IC50 or EC50 that approximates it; bounds were set here for any values at or beyond the usual limits of such assays
# assay-conditions: source organism: Vibrio vulnificus
pKd: −log10 of the molar value.
measured-endpoint: pKd

Sample "DEWECTRDD" — what was its pKd? ≤ 4.70

* * *

# system-tested: HLA-A*11:01
# assay-name: IEDB peptide-MHC binding, purified MHC/direct/fluorescence; filed as Kd, often an IC50 or EC50 that approximates it; bounds were set here for any values at or beyond the usual limits of such assays
# assay-conditions: source organism: Influenza A virus (A/equine/New York/1/1999(H3N8))
measured-endpoint: Kd

Sample "RELVRKTRF" — what was its Kd? ≥ 20 µM

* * *

# system-tested: HLA-A*02:06
# assay-name: IEDB peptide-MHC binding, purified MHC/competitive/fluorescence; filed as Kd, often an IC50 or EC50 that approximates it; bounds were set here for any values at or beyond the usual limits of such assays
# assay-conditions: source organism: Vibrio vulnificus CMCP6
measured-endpoint: pKd
pKd here is simply -log10 of the concentration when that concentration is written in mol/L.

Sample "VTFFCVMTY" — what was its pKd? 6.32

* * *

# system-tested: HLA-A*11:01
# assay-name: IEDB peptide-MHC binding, purified MHC/direct/fluorescence; filed as Kd, often an IC50 or EC50 that approximates it; bounds were set here for any values at or beyond the usual limits of such assays
# assay-conditions: source organism: Vibrio parahaemolyticus RIMD 2210633
pKd: −log10 of the molar value.
measured-endpoint: pKd

Identify the measured pKd of "SMNYPNSYK" for HLA-A*11:01. ≥ 9.00

* * *

# system-tested: HLA-A*02:03
# assay-name: IEDB peptide-MHC binding, purified MHC/competitive/fluorescence; filed as Kd, often an IC50 or EC50 that approximates it; bounds were set here for any values at or beyond the usual limits of such assays
# assay-conditions: source organism: Pasteurella multocida subsp. multocida str. Pm70
pKd: −log10 of the molar value.
measured-endpoint: pKd

Sample "LMAEDLANV" — what was its pKd? ≥ 10.00

* * *

# system-tested: HLA-A*66:01
# assay-name: IEDB peptide-MHC binding, purified MHC/competitive/fluorescence; filed as Kd, often an IC50 or EC50 that approximates it; bounds were set here for any values at or beyond the usual limits of such assays
# assay-conditions: source organism: Shigella flexneri 5 str. 8401
measured-endpoint: Kd

Sample "FGALFMWLL" — what was its Kd? ≥ 5 µM

* * *

# system-tested: HLA-A*32:01
# assay-name: IEDB peptide-MHC binding, purified MHC/competitive/radioactivity; filed as Kd, often an IC50 or EC50 that approximates it; bounds were set here for any values at or beyond the usual limits of such assays
# assay-conditions: source organism: Mammarenavirus brazilense
measured-endpoint: pKd
pKd here is simply -log10 of the concentration when that concentration is written in mol/L.

Sample "ELLGYCVSLF" — what was its pKd? 4.96

* * *

# system-tested: HLA-A*31:01
# assay-name: IEDB peptide-MHC binding, purified MHC/competitive/fluorescence; filed as Kd, often an IC50 or EC50 that approximates it; bounds were set here for any values at or beyond the usual limits of such assays
# assay-conditions: source organism: Yellow fever virus
measured-endpoint: pKd
pKd here is simply -log10 of the concentration when that concentration is written in mol/L.

Identify the measured pKd of "KVVNRWLFR" for HLA-A*31:01. 8.96

* * *

# system-tested: HLA-B*15:17
# assay-name: IEDB peptide-MHC binding, purified MHC/direct/fluorescence; filed as Kd, often an IC50 or EC50 that approximates it; bounds were set here for any values at or beyond the usual limits of such assays
# assay-conditions: source organism: Brucella abortus 2308
measured-endpoint: Kd (nM)
API: value field is a number in nM; no unit string.

Sample "ITGLPPTEW" — what was its Kd? 2.3

* * *

# system-tested: HLA-B*15:01
# assay-name: IEDB peptide-MHC binding, purified MHC/direct/fluorescence; filed as Kd, often an IC50 or EC50 that approximates it; bounds were set here for any values at or beyond the usual limits of such assays
# assay-conditions: source organism: Vibrio cholerae O139
pKd: −log10 of the molar value.
measured-endpoint: pKd

Sample "EKDSNHNVL" — what was its pKd? ≤ 4.70

* * *

# system-tested: HLA-A*26:01
# assay-name: IEDB peptide-MHC binding, purified MHC/competitive/radioactivity; filed as Kd, often an IC50 or EC50 that approximates it; bounds were set here for any values at or beyond the usual limits of such assays
# assay-conditions: source organism: Mammarenavirus lassaense
measured-endpoint: Kd (µM)
API: value field is a number in µM; no unit string.

Sample "FYSQESPQSY" — what was its Kd? 0.38

* * *

# system-tested: HLA-A*02:11
# assay-name: IEDB peptide-MHC binding, purified MHC/direct/fluorescence; filed as Kd, often an IC50 or EC50 that approximates it; bounds were set here for any values at or beyond the usual limits of such assays
# assay-conditions: source organism: Vibrio cholerae V52
pKd: −log10 of the molar value.
measured-endpoint: pKd

Sample "MGMEQTMSV" — what was its pKd? ≤ 4.70

* * *

# system-tested: HLA-B*15:17
# assay-name: IEDB peptide-MHC binding, purified MHC/direct/fluorescence; filed as Kd, often an IC50 or EC50 that approximates it; bounds were set here for any values at or beyond the usual limits of such assays
# assay-conditions: source organism: Vibrio cholerae V52
measured-endpoint: Kd

Sample "MGMEQTMSV" — what was its Kd? ≥ 20 µM

* * *

# system-tested: HLA-B*08:03
# assay-name: IEDB peptide-MHC binding, purified MHC/direct/fluorescence; filed as Kd, often an IC50 or EC50 that approximates it; bounds were set here for any values at or beyond the usual limits of such assays
# assay-conditions: source organism: Mycobacterium tuberculosis str. Haarlem
pKd: −log10 of the molar value.
measured-endpoint: pKd

Sample "KVMVICYAY" — what was its pKd? ≤ 4.70

* * *

# system-tested: HLA-B*18:01
# assay-name: IEDB peptide-MHC binding, purified MHC/competitive/fluorescence; filed as Kd, often an IC50 or EC50 that approximates it; bounds were set here for any values at or beyond the usual limits of such assays
# assay-conditions: source organism: Listeria monocytogenes EGD-e
pKd: −log10 of the molar value.
measured-endpoint: pKd

Sample "LAIVTTPLV" — what was its pKd? ≤ 4.70
